# Assay system: Gonadotropin-releasing hormone receptor (Rattus norvegicus)
# Sequence (P30969 whole entry): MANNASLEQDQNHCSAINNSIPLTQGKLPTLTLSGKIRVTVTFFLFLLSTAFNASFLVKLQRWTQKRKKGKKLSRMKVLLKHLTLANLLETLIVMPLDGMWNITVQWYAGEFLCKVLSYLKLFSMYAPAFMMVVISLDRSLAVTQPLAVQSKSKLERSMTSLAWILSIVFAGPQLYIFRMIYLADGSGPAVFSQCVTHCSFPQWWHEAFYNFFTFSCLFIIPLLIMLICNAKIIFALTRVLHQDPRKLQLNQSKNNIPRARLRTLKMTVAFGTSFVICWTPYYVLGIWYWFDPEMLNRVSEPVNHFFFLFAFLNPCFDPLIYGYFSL
# Test details: Binding affinity for Gonadotropin-releasing hormone receptor in rat pituitary membrane at 10 buserelin as radioligand
# Format: cell membranes
Quantity name: IC50 (nM)
One number for each entry, in nM.

Cc1cc(C)cc(-c2c(O)nc3cc(Cl)c([N+](=O)[O-])cc3c2OCC[C@@H]2CCCN2)c1 = 15
Cc1cc(C)cc(-c2c(O)nc3cc(Cl)c([N+](=O)[O-])cc3c2OCC[C@@H]2CCCCN2C)c1 = 20
Cc1cc(C)cc(-c2c(O)nc3cc(Cl)c([N+](=O)[O-])cc3c2OCC[C@H]2CCCN2)c1 = 100
Cc1cc(C)cc(-c2c(O)nc3cc(Cl)c([N+](=O)[O-])cc3c2OCC[C@H]2CCCCN2C)c1 = 85
Cc1cc(C)cc(-c2c(O)nc3cc(Cl)c([N+](=O)[O-])cc3c2OCC[C@@H]2CCCCN2)c1 = 10

Need IC50 for each of these compounds.
1. Cc1cc(C)cc(-c2c(O)nc3cc(Cl)c([N+](=O)[O-])cc3c2OCC[C@@H]2CCN2)c1
2. Cc1cc(C)cc(-c2c(O)nc3cc(Cl)c([N+](=O)[O-])cc3c2OCC[C@H]2CCCCN2)c1
3. Cc1cc(C)cc(-c2c(OCCC3CCCCCN3)c3cc([N+](=O)[O-])c(Cl)cc3[nH]c2=O)c1 (stereo not given)
4. Cc1cc(C)cc(-c2c(O)nc3cc(Cl)c([N+](=O)[O-])cc3c2OCCCC2CCCCN2)c1 (stereo not given)
5. Cc1cc(C)cc(-c2c(OCC3CCCNC3)c3cc([N+](=O)[O-])c(Cl)cc3[nH]c2=O)c1 (stereo not given)

**Result**
1: 25; 2: 150; 3: 36; 4: 1420; 5: 36
